Data origin, for the record: ChEMBL document CHEMBL1149437

target or test system: Hydroxycarboxylic acid receptor 3 (Homo sapiens)
Sequence (P49019 whole entry): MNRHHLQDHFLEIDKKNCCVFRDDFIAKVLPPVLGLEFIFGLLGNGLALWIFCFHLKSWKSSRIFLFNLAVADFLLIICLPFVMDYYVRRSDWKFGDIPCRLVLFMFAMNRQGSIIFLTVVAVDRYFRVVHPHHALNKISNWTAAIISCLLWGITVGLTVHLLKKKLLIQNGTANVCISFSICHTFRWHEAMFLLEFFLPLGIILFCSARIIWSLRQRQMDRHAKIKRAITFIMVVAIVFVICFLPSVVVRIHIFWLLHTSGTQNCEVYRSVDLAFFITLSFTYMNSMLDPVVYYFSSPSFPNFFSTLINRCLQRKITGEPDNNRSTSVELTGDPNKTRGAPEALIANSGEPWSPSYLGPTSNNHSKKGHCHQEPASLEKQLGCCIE
procedure details: Agonistic activity at GPR109b by cAMP whole cell assay
measure name: EC50 (nM)

Field: example entries. Status: answers known.
| compound | target or test system | EC50, nM |
| --- | --- | --- |
| CCOCCn1nnc2cc(C(=O)O)ccc21 | Hydroxycarboxylic acid receptor 3 (Homo sapiens) | 257 |
| CC(C)(C)n1nnc2cc(C(=O)O)ccc21 | Hydroxycarboxylic acid receptor 3 (Homo sapiens) | 257 |

1 = CCSCCn1nnc2cc(C(=O)O)ccc21
2 = O=C(O)c1ccc2c(c1)nnn2C1CC1
3 = CC(C)n1cnc2cc(C(=O)O)ccc21
4 = O=C(O)c1ccc2c(c1)nnn2C1CCCC1
Incoming: Put these in order: smallest EC50 first, largest last. Output the labels ranked as instructed.
Outgoing: 1, 4, 2, 3

a = COCCn1nnc2cc(C(=O)O)ccc21
b = CCC(CC)n1nnc2cc(C(=O)O)ccc21
Incoming: Which value of EC50 is numerically greater: that of a or that of b ? Answer by stating the label of the chosen item.
Outgoing: b
(b: 3020 nM, a: 316 nM)

I = CCCCCn1nnc2cc(C(=O)O)ccc21
II = CCn1nnc2cc(C(=O)O)ccc21
III = O=C(O)c1ccc2c(c1)nnn2C1CCC1
IV = Cn1nnc2cc(C(=O)O)ccc21
V = O=C(O)c1ccc2c(c1)nnn2Cc1ccccc1
Incoming: Put these in order: smallest EC50 first, largest last. Output the labels ranked as instructed.
Outgoing: I, II, IV, III, V

P = CC(C)n1nnc2cc(C(=O)O)ccc21
Q = CCCCn1nnc2cc(C(=O)O)ccc21
Incoming: Which value of EC50 is numerically greater: that of P or that of Q ? Answer by stating the label of the chosen item.
Outgoing: Q
(Q: 692 nM, P: 398 nM)

* * *

target or test system: Hydroxycarboxylic acid receptor 3 (Homo sapiens)
procedure details: Agonistic activity at GPR109b by cAMP whole cell assay
measure name: EC50 (µM)

Field: example entries. Status: answers known.
| molecule | EC50, µM |
| --- | --- |
| CCC(C)n1nnc2cc(C(=O)O)ccc21 (configuration not stated) | 0.331 |
| O=C(O)c1ccc2c(c1)nnn2C1CCCCC1 | 5.89 |

a = CCCn1nnc2cc(C(=O)O)ccc21
b = COCC(C)n1nnc2cc(C(=O)O)ccc21 (configuration not stated)
c = COc1cccc(Cn2nnc3cc(C(=O)O)ccc32)c1
Incoming: Order the records so the highest EC50 appears first and the lowest last. Output the labels ranked as instructed.
Outgoing: a, c, b
(a: 7.41 µM, c: 5.01 µM, b: 0.2 µM)
